Test: folding enthalpy; higher = less favourable; fluorescence melt of hairpins on a sequencing array, two-state fit
Conditions: sodium 0.088 M
Reported folding enthalpy is given for each of the following sequences.
Use kcal/mol as the unit, but write only the number.

{"SEQUENCE_ENTRY": "GATCCATTACTGGATC ((((((....))))))", "folding enthalpy (kcal/mol)": -29.9}
{"SEQUENCE_ENTRY": "GCCTTGCGAAAGCATTGC ((..(((....)))..))", "folding enthalpy (kcal/mol)": -11.4}
{"SEQUENCE_ENTRY": "GTCGGCGGAAACGCCAAC ((.((((....)))).))", "folding enthalpy (kcal/mol)": -12.7}
{"SEQUENCE_ENTRY": "GATCTACTTATAGATC ((((((....))))))", "folding enthalpy (kcal/mol)": -29.4}
{"SEQUENCE_ENTRY": "GAGAAGGGAAACCTTCCC (.(((((....))))).)", "folding enthalpy (kcal/mol)": -15.9}

I am curious: what folding enthalpy value has been reported for GTGCGCGAAAGCGGACAC ((((((....)))..))) ?
-11.1

// folding enthalpy lookup, key: GGTATTGAAAAATACC ((((((....))))))
-38.8

Any idea what its folding enthalpy is? The sequence is GATCTGATAGCAGATC ((((((....))))))
-34.4

Need folding enthalpy of GTCGGCGAAAGCCAGGAC ((((((....)))..))) , thanks.
-13.7

Item GAATCGCGAAAGCGCTTC (((.(((....))).))) has what recorded folding enthalpy?
-18.1

Fill blank: measured folding enthalpy of the sequence GTCCATCGAAAGATCGAC (((.(((....))).))) is ____.
-31

Field request: folding enthalpy | item: GTTGGACGAAAGTCGAAC (((.(((....))).)))
-16.8

For the sequence shown here, GCAGCCGAAAGGCATTGC ((((((....)))..))) , give the reported folding enthalpy.
-15.6

Quick check: folding enthalpy of GCTCACGAAAGTGAGAGC ((((((....)))..))) ?
-13.7

====

Assay: melting temperature; fluorescence melt of hairpins on a sequencing array, two-state fit, raised by 9.35 °C to match UV melts
Conditions: sodium 0.088 M
MEASURE: Tm (°C)
Report the figure in °C without appending any unit label.

Take a look at these entries with their results.
{"SEQUENCE_ENTRY": "GTACCCGAAAGGGGGTAC ((((((....)))..)))", "MEASURE": "Tm", "REPORTED": 49.6}
{"SEQUENCE_ENTRY": "CGAAGCGGAAACGCGTCG (((.(((....))).)))", "MEASURE": "Tm", "REPORTED": 55.1}
{"SEQUENCE_ENTRY": "GGTTACGAAAGTAGAACC ((((((....)))..)))", "MEASURE": "Tm", "REPORTED": 37.8}
{"SEQUENCE_ENTRY": "GATCACGCTCGTGATC ((((((....))))))", "MEASURE": "Tm", "REPORTED": 60.9}

Fill blank: measured Tm of the sequence GGTTCTCGAAAGAGGACC (((.(((....))).))) is ____.
57.2

Given the entry GCGCCTTCGAAAGAACGC (((..(((....)))))) , report its measured Tm.
38.6

====

Assay: melting temperature; fluorescence melt of hairpins on a sequencing array, two-state fit, raised by 9.35 °C to match UV melts
Conditions: sodium 0.088 M
Measured Tm values are reported for all entries that follow.
The response must be a number in °C with no trailing unit.

Field: example entries. Status: answers known.
{"SEQUENCE_ENTRY": "GAACGGAAACGTTC (((((....)))))", "Tm, °C": 55.2}
{"SEQUENCE_ENTRY": "GATCAATGTCTTGATC ((((((....))))))", "Tm, °C": 43.5}
{"SEQUENCE_ENTRY": "GATCGATAAATCGATC ((((((....))))))", "Tm, °C": 52.3}

Name the recorded Tm for GTCATACGAAAGTAGGAC (((.(((....))).))) .
53.9

====

Assay: folding enthalpy; higher = less favourable; fluorescence melt of hairpins on a sequencing array, two-state fit
Conditions: sodium 0.088 M
Think of -20 kcal/mol as a floor: if folding enthalpy stands on it or above, it is TRUE; beneath it, FALSE.

Record excerpt, results attached:
{"SEQUENCE_ENTRY": "GTTTCGGGAAACTGGAAC (((.(.(....).).)))", "LABEL_VALUE": "TRUE"}
{"SEQUENCE_ENTRY": "GTGGAGGGAAACCCCCAC ((((.((....)).))))", "LABEL_VALUE": "FALSE"}
{"SEQUENCE_ENTRY": "CGATGTCGGAAACGATCG (((..(((....))))))", "LABEL_VALUE": "TRUE"}
{"SEQUENCE_ENTRY": "GATCATCTCAATGATC ((((((....))))))", "LABEL_VALUE": "FALSE"}
{"SEQUENCE_ENTRY": "TTTGGGAAACCAAA (((((....)))))", "LABEL_VALUE": "TRUE"}

Reported folding enthalpy reaches at least -20 kcal/mol for GCAACGGGAAACCATTGC ((((.((....)).)))) ?
FALSE

Does GCACCTGCGAAAGCATGC (((..(((....)))))) have a reported folding enthalpy of at least -20 kcal/mol?
TRUE

Does folding enthalpy meet or surpass -20 kcal/mol for GGAATACCGAAAGGTTCC (((..(((....)))))) ?
TRUE

Decide: folding enthalpy of CCAACGAAAGTTGG (((((....))))) >= -20 kcal/mol?
FALSE

Reported folding enthalpy at or above -20 kcal/mol? GATAGGGCGAAAGCCATC (((..(((....))))))
TRUE

Could you tell me if the measured folding enthalpy of GATCTTACATAAGATC ((((((....)))))) reaches -20 kcal/mol or more?
FALSE

Kindly determine if folding enthalpy recorded for GATCAACGCTTGATC ((((((...)))))) is above or exactly -20 kcal/mol.
FALSE

Check the entry GATCGCATAGGCGATC ((((((....)))))) : does folding enthalpy equal or exceed -20 kcal/mol?
FALSE

Say whether GATCGGGCGAAAGCCATC (((..(((....)))))) shows folding enthalpy of -20 kcal/mol or more.
TRUE

Form field: folding enthalpy at least -20 kcal/mol? Entry: GGGCCCGAAAGGGGACCC ((((((....)))..)))
TRUE

Decide: is the reported value of folding enthalpy for GAATCCGGAAACGGGTTC (((.(((....))).))) equal to or greater than -20 kcal/mol?
FALSE

====

Assay: melting temperature; fluorescence melt of hairpins on a sequencing array, two-state fit, raised by 9.35 °C to match UV melts
Conditions: sodium 0.088 M
Tm: recorded values
Value expressed in °C; do not type the unit.

Given the sequence CGCGAACGGAAACGTGCG (((..(((....)))))) , what is its reported Tm?
49.6

Name the recorded Tm for GTTGCAGCGAAAGCTAAC (((..(((....)))))) .
29.2

====

Assay: melting temperature; fluorescence melt of hairpins on a sequencing array, two-state fit, raised by 9.35 °C to match UV melts
Details: sodium 0.088 M
Tm values by entry
API: value field is a number in °C; no unit string.

Worked cases, answers included:
{"SEQUENCE_ENTRY": "GATCAGGCACCTGATC ((((((....))))))", "MEASURE": "Tm", "UNIT_NAME": "°C", "REPORTED": 55.4}
{"SEQUENCE_ENTRY": "GACTGGGGAAACCCAGCC (.(((((....))))).)", "MEASURE": "Tm", "UNIT_NAME": "°C", "REPORTED": 44.7}
{"SEQUENCE_ENTRY": "GTCTCCACGAAAGTGGAC (((..(((....))))))", "MEASURE": "Tm", "UNIT_NAME": "°C", "REPORTED": 32.2}
{"SEQUENCE_ENTRY": "GCGAAGAATCGC ((((....))))", "MEASURE": "Tm", "UNIT_NAME": "°C", "REPORTED": 50.2}
{"SEQUENCE_ENTRY": "GTGTTCGGAAACGGATAC ((.(.((....)).).))", "MEASURE": "Tm", "UNIT_NAME": "°C", "REPORTED": 33.6}
{"SEQUENCE_ENTRY": "GTTGCGCGAAAGCGTAAC (((.(((....))).)))", "MEASURE": "Tm", "UNIT_NAME": "°C", "REPORTED": 58.1}

// query Tm value for entry GCGAACGAAAGTTAACGC ((((((....)))..)))
44.6

Using the record for CGCGGAACCGTCCGCG ((((((....)))))) , report its Tm.
68.4
